Quick reference: normalized signal at concentration 1.11111 of the listed items.
Tested on: Plasmodium berghei (Pb-Luc) exoerythrocytic-stage parasites
Condition Parameters: first series of columns; concentration 1.11111; fraction of control
Lab note: record just the number, no unit beside it.

Below: 5 compounds and their reported normalized signal at concentration 1.11111.
{"columns": ["Compound", "Quantitative Readout"],
 "data": [
  ["O=C(Nc1ccc2c(c1)[C@@H]1C[C@@H](CC(=O)N3CCc4ccccc4C3)O[C@@H](CO)[C@@H]1O2)c1ccc2c(c1)OCO2 [BRD-K15778794-001-01-7]", 1.105],
  ["C[C@@H]1CN([C@@H](C)CO)C(=O)c2ccccc2-c2ccccc2CO[C@@H]1CN(C)S(=O)(=O)Cc1ccccc1 [BRD-K06421369-001-01-0]", 0.8244],
  ["COc1cccc(S(=O)(=O)N2CCCCN3[C@H](CO)[C@H](c4ccc(C#CCC(C)C)cc4)[C@H]3C2)c1 [BRD-K69197522-001-01-4]", 0.9136],
  ["COc1ccccc1NC(=O)N1C[C@@H]2N[C@H](C1)C2c1ccc(/C=C/c2ccccc2)cc1 (stereo partly drawn) [BRD-K72765192-019-01-4]", 0.9875],
  ["C[C@H](CO)N1C[C@H](C)[C@H](CN(C)S(=O)(=O)c2ccc(F)cc2)OCCCC[C@H](C)Oc2ccc(N(C)C)cc2C1=O [BRD-K59130783-001-01-1]", 0.9129]
]}

Next, consider the following compound.
Exercise: Which normalized signal at concentration 1.11111 value is on record for C[C@H]1CN([C@@H](C)CO)C(=O)CCCn2cc(nn2)CO[C@H]1CN(C)C(=O)Nc1cccc2ccccc12 [BRD-K54628954-001-01-2] ?
Solution: 0.9783

* * *

System: HepG2-A16-CD81EGFP cells
Measurement Notes: cells
Condition Parameters: Homo sapiens, HepG2, read-out: HepG2 Tox% @ 50 uM rep1
Quick reference: cytotoxicity at 50 µM of the listed items.
// note: answer is a bare numeric in %

{"columns": ["Molecule", "Assayed System", "cytotoxicity at 50 µM (%)"],
 "data": [
  ["CCOc1ccc(CN2CCN(CC(O)COc3ccc(OCC(O)CN4CCN(Cc5ccc(OCC)cc5)CC4)cc3)CC2)cc1 (stereo not shown)", "HepG2-A16-CD81EGFP cells", 98],
  ["O=C1C2=C(Nc3ccccc3SC2c2ccccc2)c2ccccc21 (stereo not shown)", "HepG2-A16-CD81EGFP cells", 87],
  ["COc1ccc(-c2nc(N3CCN(C(=O)C4CCCCC4)CC3)c3c4c(sc3n2)CCCC4)cc1", "HepG2-A16-CD81EGFP cells", 2.59]
]}

Exercise: Which cytotoxicity at 50 µM value is on record for CCCc1c(C)nc2ccc(Br)cc2c1O ?
Solution: -21

* * *

Tested on: HepG2-A16-CD81EGFP cells
Measurement Notes: cells
Condition Parameters: Homo sapiens, HepG2, read-out: % inhibition
Criterion: inhibition at 50 µM meeting or surpassing 70%. Met: 1. Not met: -1.

{"columns": ["Compound", "Assayed System", "Group Label"],
 "data": [
  ["CCOC(=O)c1ccc2nc(-c3ccccc3)cc(O)c2c1 [MMV006457]", "HepG2-A16-CD81EGFP cells", 1],
  ["COc1ccc(CN2CCN(Cc3ccccc3)CC2)c(O)c1 [MMV665944]", "HepG2-A16-CD81EGFP cells", 1],
  ["Cc1cc(N2CCCC2)nc(Nc2ccc(NC(=O)CCc3ccccc3)cc2)n1 [MMV396669]", "HepG2-A16-CD81EGFP cells", 1],
  ["COc1ccccc1N1CCN(C(CNS(=O)(=O)c2ccc(Cl)cc2)c2cccnc2)CC1 (stereo not shown) [MMV665914]", "HepG2-A16-CD81EGFP cells", -1]
]}

Exercise: Quick check, inhibition at 50 µM >= 70%? CCCC(c1nnnn1C1CCCCC1)N1CCN(C(=O)c2ccco2)CC1 (stereo not shown) [MMV666093]
Solution: -1

Exercise: Quick check, inhibition at 50 µM >= 70%? O=c1nc(C=Cc2ccc(Cl)cc2)oc2ccccc12 [MMV007977]
Solution: 1

Data provenance: paper PMC4890880
